Target: recombinant human TGF-β1 (Homo sapiens)
Construct: purchased R&D systems
Sequence (P01137 279-390 limits assumed): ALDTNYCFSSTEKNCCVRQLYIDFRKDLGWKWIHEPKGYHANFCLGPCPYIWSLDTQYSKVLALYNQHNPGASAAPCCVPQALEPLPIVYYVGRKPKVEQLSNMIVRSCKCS
Test: ELISA of HA-tagged peptides with TGF-β1 beads
Format: binding
Conditions: relative value with binding of peptide TGFb1_061 (SEQ ID NO: 62) to TGF-β1 set to 100%; HA-tagged peptides, TGF-β1 beads ELISA
Positions of bridges follow the written chain, without caps; N, C: chain ends. Non-standard residues stand in square brackets, D forms with d. No end group written: not given here. Trp(6-aza) = N[C@@H](Cc1c[nH]c2cnccc12)C(=O)O; Trp(7-aza) = N[C@@H](Cc1c[nH]c2ncccc12)C(=O)O; 1Nal = N[C@@H](Cc1cccc2ccccc12)C(=O)O; Gly(NCH2CH2Ph) = O=C(O)CNCCc1ccccc1; 3Pal = N[C@@H](Cc1cccnc1)C(=O)O; 4Pal = N[C@@H](Cc1ccncc1)C(=O)O
Some substances, each annotated with its measured Activity of binding to TGF-β.
REPORTED ENDPOINT: Activity of binding to TGF-β (%)

substance="56 ({CH2CO}-FWVVNVYDD[Gly(NCH2CH2Ph)]V[1Nal]YHVCG; thioether N-16; also: HA-tag) [compound 56]" system_tested="recombinant human TGF-β1 (Homo sapiens)" unit_label=% numeric_result=90
substance="66 ({CH2CO}-F[Trp(7-aza)]VVNVYDD[Gly(NCH2CH2Ph)]V[1Nal]YHVCG; thioether N-16; also: HA-tag) [compound 66]" system_tested="recombinant human TGF-β1 (Homo sapiens)" unit_label=% numeric_result=106
substance="52 ({CH2CO}-F[Trp(6-aza)]VVNVYDD[Gly(NCH2CH2Ph)]V[1Nal]YHVCG; thioether N-16; also: HA-tag) [compound 52]" system_tested="recombinant human TGF-β1 (Homo sapiens)" unit_label=% numeric_result=85
substance="60 ({CH2CO}-F[1Nal]VVNVYDQ[Gly(NCH2CH2Ph)]V[1Nal]YHVCG; thioether N-16; also: HA-tag) [compound 60]" system_tested="recombinant human TGF-β1 (Homo sapiens)" unit_label=% numeric_result=95
substance="63 ({CH2CO}-F[1Nal]VVNVKDD[Gly(NCH2CH2Ph)]V[1Nal]YHVCG; thioether N-16; also: HA-tag) [compound 63]" system_tested="recombinant human TGF-β1 (Homo sapiens)" unit_label=% numeric_result=102
substance="49 ({CH2CO}-F[1Nal]VVNVYDD[Gly(NCH2CH2Ph)]V[1Nal][4Pal]HVCG; thioether N-16; also: HA-tag) [compound 49]" system_tested="recombinant human TGF-β1 (Homo sapiens)" unit_label=% numeric_result=80
substance="62 ({CH2CO}-F[1Nal]VVNVYDD[Gly(NCH2CH2Ph)]V[1Nal]YHVCG; thioether N-16; also: HA-tag) [compound 62]" system_tested="recombinant human TGF-β1 (Homo sapiens)" unit_label=% numeric_result=100
substance="50 ({CH2CO}-F[1Nal]VVNVYDD[Gly(NCH2CH2Ph)]V[1Nal]YHQCG; thioether N-16; also: HA-tag) [compound 50]" system_tested="recombinant human TGF-β1 (Homo sapiens)" unit_label=% numeric_result=81
substance="51 ({CH2CO}-F[1Nal]VKNVYDD[Gly(NCH2CH2Ph)]V[1Nal]YHVCG; thioether N-16; also: HA-tag) [compound 51]" system_tested="recombinant human TGF-β1 (Homo sapiens)" unit_label=% numeric_result=84
substance="53 ({CH2CO}-F[1Nal]VVNVYDDKV[1Nal]YHVCG; thioether N-16; also: HA-tag) [compound 53]" system_tested="recombinant human TGF-β1 (Homo sapiens)" unit_label=% numeric_result=86
substance="48 ({CH2CO}-F[1Nal]VVNVEDD[Gly(NCH2CH2Ph)]V[1Nal]YHVCG; thioether N-16; also: HA-tag) [compound 48]" system_tested="recombinant human TGF-β1 (Homo sapiens)" unit_label=% numeric_result=80
substance="59 ({CH2CO}-F[1Nal]VVNVYDD[Gly(NCH2CH2Ph)]V[1Nal][3Pal]HVCG; thioether N-16; also: HA-tag) [compound 59]" system_tested="recombinant human TGF-β1 (Homo sapiens)" unit_label=% numeric_result=95
substance="55 ({CH2CO}-F[1Nal]VVNVYDD[Gly(NCH2CH2Ph)]V[1Nal]YHECG; thioether N-16; also: HA-tag) [compound 55]" system_tested="recombinant human TGF-β1 (Homo sapiens)" unit_label=% numeric_result=89
